These measurements were taken from patent US20220177594A1.

- TEST_TARGET: T1, ANTIBODY EXPRESSION CONTROL
- T1 construct: also called mouse anti-canine antibody (capture reagent of the expression control ELISA)
- ASSAY: SPR Biacore, expression control
- Description: The affinity with which candidate mAbs bind canine, feline, and human (SEQ ID NO: 122; Human_OSMR) (R&D Systems, Minneapolis, Minn.) OSMR was determined using surface plasmon resonance (SPR) on a Biacore system (Biacore Life Sciences (GE Healthcare), Uppsala, Sweden). […] Chips were quenched with ethanolamine and the affinity with which all candidate mAbs bound to the immobilized OSMR was evaluated. […]
As shown below, each of these binders has a reported koff value.

# BINDER, koff
data = [
    ("mouse: canine 09E09 chimera (antibody, V domains shown, Mouse variable domains on canine IgG constant regions; also called 09E09 (Mouse:Canine); mouse:dog chimera 09E09) VH: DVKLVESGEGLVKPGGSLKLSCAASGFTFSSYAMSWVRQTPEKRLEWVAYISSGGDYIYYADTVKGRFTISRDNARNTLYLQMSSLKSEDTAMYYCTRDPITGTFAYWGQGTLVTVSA VL: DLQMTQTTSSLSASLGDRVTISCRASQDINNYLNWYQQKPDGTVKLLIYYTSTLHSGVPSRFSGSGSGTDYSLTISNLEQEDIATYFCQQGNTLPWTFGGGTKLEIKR", "8.68e-07 s⁻¹"),
    ("Mu_09E09_VH (SEQ ID NO: 35)_S35A (antibody, V domains shown) VH: DVKLVESGEGLVKPGGSLKLSCAASGFTFSSYAMAWVRQTPEKRLEWVAYISSGGDYIYYADTVKGRFTISRDNARNTLYLQMSSLKSEDTAMYYCTRDPITGTFAYWGQGTLVTVSA VL: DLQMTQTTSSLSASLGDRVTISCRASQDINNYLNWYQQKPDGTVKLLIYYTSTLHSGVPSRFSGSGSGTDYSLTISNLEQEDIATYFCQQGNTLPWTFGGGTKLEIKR", "5.34e-05 s⁻¹"),
    ("Mu_10F07_VL (SEQ ID NO: 41)_L33A (antibody, V domains shown) VH: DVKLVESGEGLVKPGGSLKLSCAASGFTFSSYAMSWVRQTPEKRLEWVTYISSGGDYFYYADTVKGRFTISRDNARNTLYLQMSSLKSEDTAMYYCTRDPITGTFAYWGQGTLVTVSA VL: DIQMTQTTSSLSASLGDRVTISCRASQDITNYANWYQQKPDGTVKLLIYYTSTLHSGVPSRFSGSGSGTDFSLTISNLEQEDIATYFCQQGHMLPWTFGGGTKLEIKR", "8.43e-05 s⁻¹"),
]
